Values compiled from patent US10683297B2.

pIC50: −log10 of the molar value.
What follows is a record of pIC50 for UniProt P23458.
Sequence (P23458 whole entry): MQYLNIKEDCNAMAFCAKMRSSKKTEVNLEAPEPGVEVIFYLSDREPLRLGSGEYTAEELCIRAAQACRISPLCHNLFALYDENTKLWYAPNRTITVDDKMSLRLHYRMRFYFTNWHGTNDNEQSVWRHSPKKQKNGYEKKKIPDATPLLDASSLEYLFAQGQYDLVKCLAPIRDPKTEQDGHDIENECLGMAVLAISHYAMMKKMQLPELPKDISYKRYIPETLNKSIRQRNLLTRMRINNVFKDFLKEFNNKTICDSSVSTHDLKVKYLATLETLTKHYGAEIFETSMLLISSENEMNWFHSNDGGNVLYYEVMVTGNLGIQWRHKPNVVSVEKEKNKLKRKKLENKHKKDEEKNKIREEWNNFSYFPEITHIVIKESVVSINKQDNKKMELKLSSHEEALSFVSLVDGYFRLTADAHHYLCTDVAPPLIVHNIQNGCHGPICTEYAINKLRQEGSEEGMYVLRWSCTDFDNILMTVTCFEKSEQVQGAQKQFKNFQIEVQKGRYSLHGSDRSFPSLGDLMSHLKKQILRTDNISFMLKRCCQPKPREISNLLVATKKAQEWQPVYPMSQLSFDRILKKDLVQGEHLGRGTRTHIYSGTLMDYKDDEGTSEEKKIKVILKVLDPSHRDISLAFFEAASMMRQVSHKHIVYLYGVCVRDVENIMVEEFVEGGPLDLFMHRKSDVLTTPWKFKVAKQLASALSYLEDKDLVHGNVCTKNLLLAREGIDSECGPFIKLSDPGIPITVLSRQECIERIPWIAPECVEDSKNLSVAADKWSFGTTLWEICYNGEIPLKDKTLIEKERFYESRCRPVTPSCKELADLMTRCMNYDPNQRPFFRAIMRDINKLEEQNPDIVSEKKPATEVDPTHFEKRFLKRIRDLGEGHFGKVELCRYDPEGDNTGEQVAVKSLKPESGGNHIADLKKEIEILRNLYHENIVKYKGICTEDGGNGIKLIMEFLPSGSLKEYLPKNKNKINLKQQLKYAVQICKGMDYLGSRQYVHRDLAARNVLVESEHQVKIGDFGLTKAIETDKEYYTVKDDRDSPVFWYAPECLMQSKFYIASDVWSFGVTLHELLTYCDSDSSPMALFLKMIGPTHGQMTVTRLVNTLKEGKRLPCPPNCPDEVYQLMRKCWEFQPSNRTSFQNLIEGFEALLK
Parameter Measured: pIC50

Molecule	Tested Target	pIC50
CCC1CN(c2ccc(C#N)nn2)CCC1Nc1nc(Nc2ccn3c(C)cnc3c2)ncc1Cl (stereo not shown)	UniProt P23458	9.22
CC(C)(O)c1cnc2cc(Nc3ncc(Cl)c(NC4CCN(c5ccc(C#N)cn5)CC4)n3)ccn12	UniProt P23458	9.52
CC(C)(O)Cc1nc2cc(Nc3ncc(Cl)c(NC4CCN(c5ccc(C#N)nn5)CC4)n3)ccn2n1	UniProt P23458	9.15

a: COC(=O)Cc1nc2cc(Nc3ncc(Cl)c(NC4CCN(c5ccc(C#N)nn5)CC4)n3)ccn2n1
b: Cc1cnc2ccc(Nc3ncc(Cl)c(NC4CCN(c5ccc(C#N)nn5)CC4)n3)cn12
Lookup: Thinking about recorded pIC50 values, which is higher, a or b ? Give the chosen item's label as your response.
Found: b
(b: 9.30, a: 9.10)

====

- Experimental Protocol: Pharmacokinetics after intravenous and oral administration in rats
- Format: in vivo
- Settings: rat, plasma, oral (generally 5 or 10 mg/kg) versus iv dosing, read-out: F (oral bioavailability)
Parameter Measured: bioavailability (%)

Molecule	bioavailability (%)
Cc1c(Nc2ncc(Cl)c(NC3CCN(c4ccc(C#N)nn4)CC3)n2)ccn2c(C)cnc12	38.5
N#Cc1ccc(N2CCC(Nc3nc(Nc4ccn5ccnc5c4)ncc3Cl)CC2)nn1	35.1
CCC1CN(c2ccc(C#N)cn2)CCC1Nc1nc(Nc2ccn3ccnc3c2)ncc1Cl (centres unmarked)	71
CC(O)Cn1cnc2cc(Nc3ncc(Cl)c(NC4CCN(c5ccc(C#N)cn5)CC4)n3)cnc21 (centres unmarked)	34.1

A: CN(C)C(=O)c1nc2cc(Nc3ncc(Cl)c(NC4CCN(c5ccc(C#N)cn5)CC4)n3)ccn2n1
B: Cn1nnc2cc(Nc3ncc(Cl)c(NC4CCN(c5ccc(C#N)nn5)CC4)n3)ccc21
C: CC(C)(O)c1nc2cc(Nc3ncc(Cl)c(NC4CCN(c5ccc(C#N)cc5)CC4)n3)ccn2n1
Lookup: List the 3 entries from lowest bioavailability to highest bioavailability value. Return value: ordered labels per request.
Found: A, C, B
(A: 38.6%, C: 99.6%, B: 144%)

====

- Experimental Protocol: Compound stability in rat liver microsomes
- Format: in vitro ADME
- Settings: rat liver microsomes 0.5 mg protein/mL, compound 5 μM, NADPH 1.0 mM, pH 7.4, 37° C.; read-out: Rat T1/2
Parameter Measured: half-life at 5 μM (min)

Compound	half-life at 5 μM (min)
Cc1nc2cc(Nc3ncc(Cl)c(NC4CCN(c5ccc(C#N)nn5)CC4)n3)ccc2n1C	32.5

A: CC(O)Cn1ccc2cc(Nc3ncc(Cl)c(NC4CCN(c5ccc(C#N)cn5)CC4)n3)cnc21 (centres unmarked)
B: CC(C)(O)Cn1nnc2cc(Nc3ncc(Cl)c(NC4CCN(c5ccc(C#N)nn5)CC4)n3)ccc21
C: CC(C)(O)c1cnc2cc(Nc3ncc(Cl)c(NC4CCN(c5ccc(C#N)cn5)CC4)n3)ccn12
Lookup: List the 3 entries from lowest half-life at 5 μM to highest half-life at 5 μM value. Return value: ordered labels per request.
Found: A, C, B

A: N#Cc1ccc(N2CCC(Nc3nc(Nc4ccc5c(c4)nnn5CC4CC4)ncc3Cl)CC2)nc1
B: Cc1nc2cc(Nc3ncc(Cl)c(NC4CCN(c5ccc(C#N)nn5)CC4)n3)ccn2n1
Lookup: // compare: A vs B , metric half-life at 5 μM, want the smaller Give the chosen item's label as your response.
Found: A
(A: 3.4 min, B: 144 min)

I: CC(C)(O)c1cn2ccc(Nc3ncc(Cl)c(NC4CCN(c5ccc(C#N)cn5)CC4)n3)cc2n1
II: CC(C)(F)c1nc2cc(Nc3ncc(Cl)c(NC4CCN(c5ccc(C#N)cn5)CC4)n3)ccn2n1
Lookup: // compare: I vs II , metric half-life at 5 μM, want the smaller Give the chosen item's label as your response.
Found: I
(I: 4.71 min, II: 28.6 min)

====

- Experimental Protocol: Compound stability in rat liver microsomes
- Format: in vitro ADME
- Settings: rat liver microsomes 0.5 mg protein/mL, compound 5 μM, NADPH 1.0 mM, pH 7.4, 37° C.; read-out: Rat T1/2
Parameter Measured: half-life at 5 μM (min)

Consider the reported half-life at 5 μM for these molecules:
Molecule	half-life at 5 μM / min
CN(C)C(=O)c1nc2cc(Nc3ncc(Cl)c(NC4CCN(c5ccc(C#N)nn5)CC4)n3)ccn2n1	23.5
CC(O)c1cnc2cc(Nc3ncc(Cl)c(NC4CCN(c5ccc(C#N)cn5)CC4)n3)ccn12 (centres unmarked)	43.2
CC(C)(O)c1nc2cc(Nc3ncc(Cl)c(NC4CCN(c5ccc(C#N)nn5)CC4F)n3)ccn2n1 (centres unmarked)	188
Cc1cnc2ccc(Nc3ncc(Cl)c(NC4CCN(c5ccc(C#N)nn5)CC4)n3)cn12	107
Cc1nc2ccc(Nc3ncc(Cl)c(NC4CCN(c5ccc(C#N)nn5)CC4)n3)cn2n1	28.4
CC(C)(O)Cn1nnc2cc(Nc3ncc(Cl)c(NC4CCN(c5ccc(C#N)cn5)CC4)n3)ccc21	170
N#Cc1ccc(N2CCC(Nc3nc(Nc4ccn5c(C(F)F)nnc5c4)ncc3Cl)CC2)nc1	80.5
CC(O)Cn1cnc2ncc(Nc3ncc(Cl)c(NC4CCN(c5ccc(C#N)cn5)CC4)n3)cc21 (centres unmarked)	34

1: CCC1CN(c2ccc(C#N)nn2)CCC1Nc1nc(Nc2ccn3cnnc3c2)ncc1Cl (centres unmarked)
2: N#Cc1ccc(N2CCC(Nc3nc(Nc4ccn5c(C6CC6)cnc5c4)ncc3Cl)CC2)nn1
Lookup: Thinking about recorded half-life at 5 μM values, which is higher, 1 or 2 ? Give the chosen item's label as your response.
Found: 1

====

- Experimental Protocol: Compound stability in rat liver microsomes
- Type: in vitro ADME
- Settings: rat liver microsomes 0.5 mg protein/mL, compound 5 μM, NADPH 1.0 mM, pH 7.4, 37° C.; read-out: Rat T1/2
Parameter Measured: half-life at 5 μM (min)

Molecular String	Parameter Measured	Reading
CN(c1nc(Nc2ccc3ncnn3c2)ncc1Cl)C1CCN(c2ccc(C#N)cn2)CC1	half-life at 5 μM	8.21

a: CC(C)(O)Cc1cn2cc(Nc3ncc(Cl)c(NC4CCN(c5ccc(C#N)cn5)CC4)n3)ccc2n1
b: CC(C)(O)c1nc2cc(Nc3ncc(Cl)c(NC4CCN(c5ccc(C#N)cn5)CC4)n3)ccn2n1
Lookup: // compare: a vs b , metric half-life at 5 μM, want the smaller Give the chosen item's label as your response.
Found: a
(a: 11.6 min, b: 246 min)

====

- Experimental Protocol: Compound stability in human liver microsomes
- Type: in vitro ADME
- Settings: liver microsomes, pH 7.4; in vivo CLint extrapolated from human liver microsome incubation
- Procedure: The LC/MS/MS system used in the analysis consists of an Agilent 1200 Series vacuum degasser, binary pump, well-plate autosampler, thermostatted column compartment, the Agilent G6430 Triple Quadrupole Mass Spectrometer with an electrosprayionization (ESI) source. Quantitative analysis was carried out using MRM mode. The parameters for MRM transitions are in the Table A. […] The concentrations of compounds in the incubation mixtures of human or rat liver microsomes were determined by a LC/MS/MS method. […]
Parameter Measured: CLint scaled at 5 μM (mL/min/kg)

Consider the reported CLint scaled at 5 μM for these compounds:
Compound	Parameter Measured	Reading
CC(C)(O)Cc1cn2ccc(Nc3ncc(Cl)c(NC4CCN(c5ccc(C#N)cn5)CC4)n3)cc2n1	CLint scaled at 5 μM	115
CC(O)Cn1cnc2ncc(Nc3ncc(Cl)c(NC4CCN(c5ccc(C#N)cn5)CC4)n3)cc21 (stereo not shown)	CLint scaled at 5 μM	54.9
CC(C)(O)Cc1nc2cc(Nc3ncc(Cl)c(NC4CCN(c5ccc(C#N)cn5)CC4)n3)ccn2n1	CLint scaled at 5 μM	49.3

a: N#Cc1ccc(N2CCC(Nc3nc(Nc4ccn5cc(C(F)F)nc5c4)ncc3Cl)CC2)nn1
b: Cc1nc2cc(Nc3ncc(Cl)c(NC4CCN(c5ccc(C#N)nn5)CC4)n3)ccn2n1
c: CC(O)Cn1cnc2cc(Nc3ncc(Cl)c(NC4CCN(c5ccc(C#N)cn5)CC4)n3)ccc21 (stereo not shown)
d: N#Cc1ccc(N2CCC(Nc3nc(Nc4ccc5c(c4)nnn5CC4CC4)ncc3Cl)CC2)nc1
Lookup: List the 4 entries from lowest CLint scaled at 5 μM to highest CLint scaled at 5 μM value. Return value: ordered labels per request.
Found: b, c, a, d

====

- Experimental Protocol: Compound stability in human liver microsomes
- Format: in vitro ADME
- Settings: liver microsomes, pH 7.4; in vivo CLint extrapolated from human liver microsome incubation
Parameter Measured: CLint scaled at 5 μM (mL/min/kg)

Compound	Units Text	CLint scaled at 5 μM
CC(C)(O)Cn1nnc2cc(Nc3ncc(Cl)c(NC4CCN(c5ccc(C#N)nn5)CC4)n3)ccc21	mL/min/kg	9.1
CCC1CN(c2ccc(C#N)cn2)CCC1Nc1nc(Nc2ccn3c(C(C)(C)O)nnc3c2)ncc1Cl (centres unmarked)	mL/min/kg	8.8
CCC1CN(c2ccc(C#N)nn2)CCC1Nc1nc(Nc2ccn3cnnc3c2)ncc1Cl (centres unmarked)	mL/min/kg	11.7

P: Cc1cnc2ccc(Nc3ncc(Cl)c(NC4CCN(c5ccc(C#N)nn5)CC4)n3)cn12
Q: Cn1cnc2cc(Nc3ncc(Cl)c(NC4CCN(c5ccc(C#N)nn5)CC4)n3)ccc21
R: CN(C)C(=O)c1nc2cc(Nc3ncc(Cl)c(NC4CCN(c5ccc(C#N)nn5)CC4)n3)ccn2n1
Lookup: List the 3 entries from lowest CLint scaled at 5 μM to highest CLint scaled at 5 μM value. Return value: ordered labels per request.
Found: Q, R, P

1: Cc1cnc2cc(Nc3ncc(Cl)c(NC4CCN(c5ccc(C#N)nn5)CC4)n3)ccn12
2: CC(O)Cn1ccc2cc(Nc3ncc(Cl)c(NC4CCN(c5ccc(C#N)cn5)CC4)n3)cnc21 (centres unmarked)
3: CN(c1nc(Nc2ccc3ncnn3c2)ncc1Cl)C1CCN(c2ccc(C#N)cn2)CC1
4: Cc1c(Nc2ncc(Cl)c(NC3CCN(c4ccc(C#N)nn4)CC3)n2)ccn2c(C)cnc12
Lookup: List the 4 entries from lowest CLint scaled at 5 μM to highest CLint scaled at 5 μM value. Return value: ordered labels per request.
Found: 1, 3, 4, 2
